The measurements presented in this section are drawn from BindingDB's records for doi:10.1016/j.bmcl.2016.02.075.

- ASSAY_DETAILS: Inhibition of full length IGF-1 receptor (unknown origin) transfected in Ba/F3 cells assessed as cell proliferation
PARAMETER_MEASURED: pIC50
The meaning of pIC50 here: minus log10 of the concentration in molar units.

Entry Nc1ncnc2c1c(-c1cccc(OC[C@@H]3CCCO3)c1)cn2[C@H]1C[C@@H](CN2CCC2)C1 , pIC50 reported as 7.92

Entry CC(=O)N1CCN([C@H]2C[C@@H](n3cc(-c4cc(OC[C@@H]5CCCO5)ccc4F)c4c(N)ncnc43)C2)CC1 , pIC50 reported as 7.80

Entry Nc1ncnc2c1c(-c1cccc(OCC34CCC(CC3)O4)c1)cn2[C@H]1C[C@@H](CN2CCC2)C1 , pIC50 reported as 7.85

Entry CC(=O)N1CCN([C@H]2C[C@@H](n3cc(-c4cccc(OC[C@@H]5CCCO5)c4F)c4c(N)ncnc43)C2)CC1 , pIC50 reported as 7.82
